# Test system: SF-295 CNS
# ASSAY_COMMENT: NCI-60 one-dose screen, 48 h (100 = growth as untreated, 0 = no growth, -100 = all killed)
# MEASUREMENT_CONDITIONS: 10 µM unless noted
About 83,000 compounds went through this panel and 20% of them were active in at least one assay; those are over-represented in the sample as a whole.
Use Met when the recorded growth is no lower than 90%; use Not met when it is lower.

[
  {
    "MOLECULE": "O=C(NCCc1ccccc1)C1CCC(=O)N1Cc1ccc(Br)cc1 (stereo not given)",
    "TARGET_OF_ASSAY": "SF-295 CNS",
    "ASSIGNED_CATEGORY": "Met"
  },
  {
    "MOLECULE": "COc1ccc(-c2cc(C(=O)Nc3nc4cc(C)c(C)cc4s3)nc3cc(-c4ccccc4)nn23)cc1OC",
    "TARGET_OF_ASSAY": "SF-295 CNS",
    "ASSIGNED_CATEGORY": "Met"
  },
  {
    "MOLECULE": "O=C(CSc1nc2c(n1Nc1ccccc1)-c1ccccc1SC2)Nc1nc(-c2ccc(Cl)cc2)cs1",
    "TARGET_OF_ASSAY": "SF-295 CNS",
    "ASSIGNED_CATEGORY": "Not met"
  },
  {
    "MOLECULE": "Cc1cc(CC(=O)O)n(C)c1C(=O)c1ccc(Cl)cc1",
    "TARGET_OF_ASSAY": "SF-295 CNS",
    "ASSIGNED_CATEGORY": "Met"
  },
  {
    "MOLECULE": "COC(=O)CCC1=C(CC(=O)OC)C(C)=N/C1=C\\c1[nH]c(-c2ccc[nH]2)cc1OC",
    "TARGET_OF_ASSAY": "SF-295 CNS",
    "ASSIGNED_CATEGORY": "Not met"
  },
  {
    "MOLECULE": "COc1ccc(COC(C)=O)cc1",
    "TARGET_OF_ASSAY": "SF-295 CNS",
    "ASSIGNED_CATEGORY": "Met"
  },
  {
    "MOLECULE": "COc1cc(C2NC(c3ccc(Cl)cc3)C(C)/C(=N/NC(N)=S)C2C)cc(OC)c1OC (stereo not given)",
    "TARGET_OF_ASSAY": "SF-295 CNS",
    "ASSIGNED_CATEGORY": "Met"
  },
  {
    "MOLECULE": "Cc1cc(C(C)(C)c2cc(C)c(O)c(CN(C)C)c2)cc(CN(C)C)c1O",
    "TARGET_OF_ASSAY": "SF-295 CNS",
    "ASSIGNED_CATEGORY": "Met"
  },
  {
    "MOLECULE": "CCCCCCCCCCC[C@@H](C[C@H]1OC(=O)[C@H]1CCCCCC)OC(=O)[C@@H](CC(C)C)NC=O",
    "TARGET_OF_ASSAY": "SF-295 CNS",
    "ASSIGNED_CATEGORY": "Not met"
  }
]

###

# Tested on: SNB-19 CNS
# ASSAY_COMMENT: NCI-60 one-dose screen, 48 h (100 = growth as untreated, 0 = no growth, -100 = all killed)
# MEASUREMENT_CONDITIONS: 10 µM unless noted
This is part of a sample that, as a whole, favours compounds with a hit. Of some 83,000 tested, about 20% had one in any assay. Calls of active or inactive are those of the source. How the source made its calls: active means growth percent below 10; inactive means the rest.
RECORDED_METRIC: growth

[
  {
    "COMPOUND": "O=[N+]([O-])c1ccc2c(c1)S(=O)c1cc([N+](=O)[O-])ccc1N2",
    "TARGET_OF_ASSAY": "SNB-19 CNS",
    "TEST_VALUE": "109% (inactive)"
  },
  {
    "COMPOUND": "CCCc1nn(C)c2c(=O)[nH]c(-c3cc(S(=O)(=O)N4CCN(C)CC4)ccc3OCC)nc12",
    "TARGET_OF_ASSAY": "SNB-19 CNS",
    "TEST_VALUE": "103% (inactive)"
  },
  {
    "COMPOUND": "O=C1/C(=C/c2ccc3cccc(Cl)c3n2)SC(=S)N1CCc1ccc(O)cc1",
    "TARGET_OF_ASSAY": "SNB-19 CNS",
    "TEST_VALUE": "97.5% (inactive)"
  },
  {
    "COMPOUND": "C=CC1=C(C(=O)O)N2C(=O)[C@@H](NC(=O)/C(=N\\O)c3csc(N)n3)[C@H]2SC1 (stereo in doubt)",
    "TARGET_OF_ASSAY": "SNB-19 CNS",
    "TEST_VALUE": "114% (inactive)"
  },
  {
    "COMPOUND": "Cc1nc2cc(NC(=O)CN3CCN(CCN4C(=O)c5cccc6cccc(c56)C4=O)CC3)ccc2s1",
    "TARGET_OF_ASSAY": "SNB-19 CNS",
    "TEST_VALUE": "44.7% (inactive)"
  },
  {
    "COMPOUND": "Cc1nn(-c2ccc(Cl)cc2)c2nc3c(nc12)C(=O)C(=O)c1ccccc1-3",
    "TARGET_OF_ASSAY": "SNB-19 CNS",
    "TEST_VALUE": "62.4% (inactive)"
  },
  {
    "COMPOUND": "Cc1cc(NC(=O)Nc2cc(Cl)ccc2C)no1",
    "TARGET_OF_ASSAY": "SNB-19 CNS",
    "TEST_VALUE": "110% (inactive)"
  },
  {
    "COMPOUND": "COc1ccc(OC)c2c1[nH]c(=O)c1c3ccccc3cn21",
    "TARGET_OF_ASSAY": "SNB-19 CNS",
    "TEST_VALUE": "-48.4% (active)"
  },
  {
    "COMPOUND": "COc1ccc(C2CC(c3ccc(OC)c(OC)c3)=NN2C(=O)c2cc(OC)c(OC)c(OC)c2)c(OC)c1 (stereo unspecified)",
    "TARGET_OF_ASSAY": "SNB-19 CNS",
    "TEST_VALUE": "91.8% (inactive)"
  },
  {
    "COMPOUND": "COc1ccc(-c2cnnn2-c2cc(OC)c3c(c2)OCO3)cc1",
    "TARGET_OF_ASSAY": "SNB-19 CNS",
    "TEST_VALUE": "39.4% (inactive)"
  },
  {
    "COMPOUND": "COc1ccc(-c2csc(NC(=O)c3cc(O)c(O)c(O)c3)n2)cc1",
    "TARGET_OF_ASSAY": "SNB-19 CNS",
    "TEST_VALUE": "59.9% (inactive)"
  },
  {
    "COMPOUND": "O=C(c1nn(-c2ccc(Cl)cc2)cc1O)n1nc(C(F)(F)F)cc1-c1ccccc1",
    "TARGET_OF_ASSAY": "SNB-19 CNS",
    "TEST_VALUE": "51.2% (inactive)"
  },
  {
    "COMPOUND": "CCCCCCCCCCC[C@@H](C[C@H]1OC(=O)[C@H]1CCCCCC)OC(=O)[C@@H](CC(C)C)NC=O",
    "TARGET_OF_ASSAY": "SNB-19 CNS",
    "TEST_VALUE": "55.6% (inactive)"
  },
  {
    "COMPOUND": "Oc1ccccc1C=Nc1ccccc1N=Cc1ccccc1O.[Cu+2]",
    "TARGET_OF_ASSAY": "SNB-19 CNS",
    "TEST_VALUE": "91.7% (inactive)"
  },
  {
    "COMPOUND": "CCCCCCCC/C=C/CCCCCCCC1=NC(C)(C)CN1CCO",
    "TARGET_OF_ASSAY": "SNB-19 CNS",
    "TEST_VALUE": "60.5% (inactive)"
  },
  {
    "COMPOUND": "O=C1NCN(c2ccccc2)C12CCN(CCCC(c1ccc(F)cc1)c1ccc(F)cc1)CC2",
    "TARGET_OF_ASSAY": "SNB-19 CNS",
    "TEST_VALUE": "78.2% (inactive)"
  },
  {
    "COMPOUND": "C/C(=N\\N1CC(=O)NC1=O)c1ccc([N+](=O)[O-])o1",
    "TARGET_OF_ASSAY": "SNB-19 CNS",
    "TEST_VALUE": "99.3% (inactive)"
  },
  {
    "COMPOUND": "CN(C)CCCN1c2nc3ccccc3cc2Sc2cc3ccccc3nc21",
    "TARGET_OF_ASSAY": "SNB-19 CNS",
    "TEST_VALUE": "-56.1% (active)"
  },
  {
    "COMPOUND": "O=C(C(=O)N1CCCCC1)c1ccc(OC2OC(CO)C(O)C(O)C2O)cc1 (stereo unspecified)",
    "TARGET_OF_ASSAY": "SNB-19 CNS",
    "TEST_VALUE": "96.8% (inactive)"
  },
  {
    "COMPOUND": "CCS(=O)(=O)OCCCl",
    "TARGET_OF_ASSAY": "SNB-19 CNS",
    "TEST_VALUE": "94.3% (inactive)"
  },
  {
    "COMPOUND": "CCOc1nc(-c2ccccc2)cc2c(O)c(-c3nnco3)[nH]c(=O)c12",
    "TARGET_OF_ASSAY": "SNB-19 CNS",
    "TEST_VALUE": "72.1% (inactive)"
  }
]
